ASSAYED_SYSTEM: T1, ZFP SBS#922 (synthetic)
T1 chain: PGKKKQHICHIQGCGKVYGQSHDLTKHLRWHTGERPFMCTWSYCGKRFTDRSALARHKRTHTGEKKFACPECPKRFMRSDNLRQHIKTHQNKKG
EXPERIMENT_SUMMARY: EMSA
TEST_CONTEXT: tags: MBP fusion
REPORTED_PROPERTY: Kd (nM)
Value expressed in nM; do not type the unit.

Query: Name the recorded Kd for AAGGTCTCA (dsDNA) DNA 1: AAGGTCTCA DNA 2: TGAGACCTT .
Result: 4

Where these numbers come from: patent US20030068675
